The following binders are listed with their measured kon values.
Biological target: T1, IL-2Rβ/γ-Fc heterodimer (IL-2Rβ-Fc-hole with IL-2Rγ-Fc-knob)
T1 construct: Co-expressed in HEK293 cells and purified with Protein A and Superdex 200
T1 sequence (chain, as listed by the source limits assumed, chain 1 of 2): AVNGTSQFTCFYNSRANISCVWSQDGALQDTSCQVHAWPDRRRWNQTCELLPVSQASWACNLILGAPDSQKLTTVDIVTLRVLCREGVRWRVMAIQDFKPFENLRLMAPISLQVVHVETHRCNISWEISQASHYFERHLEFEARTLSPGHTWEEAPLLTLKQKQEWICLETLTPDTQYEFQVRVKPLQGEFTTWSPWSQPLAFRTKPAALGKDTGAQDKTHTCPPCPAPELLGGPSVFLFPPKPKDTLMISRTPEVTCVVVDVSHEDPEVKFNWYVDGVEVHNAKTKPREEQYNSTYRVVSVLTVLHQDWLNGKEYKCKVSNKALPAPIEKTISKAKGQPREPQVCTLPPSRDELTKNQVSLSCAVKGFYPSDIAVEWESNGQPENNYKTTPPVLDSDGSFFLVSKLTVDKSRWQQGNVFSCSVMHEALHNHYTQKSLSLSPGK
T1 sequence (chain, as listed by the source limits assumed, chain 2 of 2): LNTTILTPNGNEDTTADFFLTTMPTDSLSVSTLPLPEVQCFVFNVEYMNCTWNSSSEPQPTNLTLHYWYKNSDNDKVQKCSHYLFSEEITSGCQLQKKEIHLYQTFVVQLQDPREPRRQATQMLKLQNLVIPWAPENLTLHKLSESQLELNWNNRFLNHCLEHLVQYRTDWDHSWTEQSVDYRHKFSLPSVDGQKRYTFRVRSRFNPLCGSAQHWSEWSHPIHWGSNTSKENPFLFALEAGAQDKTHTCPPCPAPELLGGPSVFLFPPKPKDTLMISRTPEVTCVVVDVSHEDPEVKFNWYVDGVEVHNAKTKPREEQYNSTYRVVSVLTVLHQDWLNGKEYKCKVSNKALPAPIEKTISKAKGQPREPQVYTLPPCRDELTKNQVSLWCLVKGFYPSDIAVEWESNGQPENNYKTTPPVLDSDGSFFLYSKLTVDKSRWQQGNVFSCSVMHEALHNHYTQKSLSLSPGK
Assay: SPR (Biacore), IL-2Rβ/γ-Fc captured on Protein A chip, 1:1 model
Give the value in M⁻¹ s⁻¹ but do not write M⁻¹ s⁻¹ after it.

[Q] Give the measured kon of IL-2-05 (G27C/F78C) (ligand, The entry already carries the mutations and C125A and begins with M. Made in E. coli) MAPTSSSTKKTQLQLEHLLLDLQMILNCINNYKNPKLTRMLTFKFYMPKKATELKHLQCLEEELKPLEEVLNLAQSKNCHLRPRDLISNINVIVLELKGSETTFMCEYADETATIVEFLNRWITFAQSIISTLT .
[A] 336000

[Q] // kon lookup, key: IL-2-03 (Q11C/L132C) (ligand, The entry already carries the mutations and C125A and begins with M. Made in E. coli) MAPTSSSTKKTCLQLEHLLLDLQMILNGINNYKNPKLTRMLTFKFYMPKKATELKHLQCLEEELKPLEEVLNLAQSKNFHLRPRDLISNINVIVLELKGSETTFMCEYADETATIVEFLNRWITFAQSIISTCT
[A] 533000

[Q] # query: kon of entry IL-2-10 (N26Q/N30S/F42A/L72G) (ligand, The entry already carries the mutations and C125A and begins with M. Made in E. coli) MAPTSSSTKKTQLQLEHLLLDLQMILQGINSYKNPKLTRMLTAKFYMPKKATELKHLQCLEEELKPLEEVLNGAQSKNFHLRPRDLISNINVIVLELKGSETTFMCEYADETATIVEFLNRWITFAQSIISTLT
[A] 1.62e+06

Turning now to a further binder:
[Q] Consider the binder IL-2-06 (… at positions 29-44 mutated into QSMHIDATL) (ligand, The entry already carries the replacement and C125A and begins with M. Made in E. coli) MAPTSSSTKKTQLQLEHLLLDLQMILNGIQSMHIDATLYMPKKATELKHLQCLEEELKPLEEVLNLAQSKNFHLRPRDLISNINVIVLELKGSETTFMCEYADETATIVEFLNRWITFAQSIISTLT and give its measured kon.
[A] 856000

Data provenance is patent US20220056094A1.
